Recorded IC50 for the following molecules
Molecular target: NRAS WT (Homo sapiens (Human), UniProt P01111+P62937)
Sequence (P01111 whole entry): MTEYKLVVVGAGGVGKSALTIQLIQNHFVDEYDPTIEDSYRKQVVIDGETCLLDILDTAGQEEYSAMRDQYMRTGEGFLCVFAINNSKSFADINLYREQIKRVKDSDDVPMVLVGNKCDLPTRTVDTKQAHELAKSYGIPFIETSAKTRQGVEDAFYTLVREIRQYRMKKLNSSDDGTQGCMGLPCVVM
Sequence (P62937 whole entry): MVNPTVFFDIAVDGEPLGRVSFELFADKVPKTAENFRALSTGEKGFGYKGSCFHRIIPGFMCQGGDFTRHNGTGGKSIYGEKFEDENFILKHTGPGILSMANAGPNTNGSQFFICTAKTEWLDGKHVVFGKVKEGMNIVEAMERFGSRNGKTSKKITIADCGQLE
Assay: Ras-Raf (BRAF RBD) disruption / FRET / MOA assay, NRAS WT
Assay type: biochemical
Settings: read-out: IC50* NRAS WT FRET data
Quantity: IC50

>>> result("CCn1c(-c2cccnc2[C@H](C)OC)c2c3cc(ccc31)-c1csc(n1)C[C@H](NC(=O)[C@H](C(C)C)N(C)C(=O)N1C[C@@H]3CN(C(=O)C#CC(C)(C)N(C)C)CC[C@@H]31)C(=O)N1CCC[C@H](N1)C(=O)OCC(C)(C)C2 (atropisomer, axis not shown)")
"0.1 to 1 µM"
>>> result("C=CC(=O)N1CC2(CCN2C(=O)N(C)[C@H](C(=O)N[C@H]2Cc3cccc(n3)-c3ccc4c(c3)c(c(-c3cccnc3[C@H](C)OC)n4CC)CC(C)(C)COC(=O)[C@@H]3CCCN(N3)C2=O)C(C)C)C1 (atropisomer, axis not shown)")
"0.1 to 1 µM"
>>> result("C=CC(=O)N1CC[C@H](C(=O)N(C)[C@H](C(=O)N[C@H]2Cc3cccc(n3)-c3ccc4c(c3)c(c(-c3cccnc3[C@H](C)OC)n4CC)CC(C)(C)COC(=O)[C@@H]3CCCN(N3)C2=O)C(C)C)C1 (atropisomer, axis not shown)")
"> 10 µM"
>>> result("C=CC(=O)N1CC[C@H](C(=O)N(C)[C@H](C(=O)N[C@H]2Cc3cccc(c3)-c3ccc4c(c3)c(c(-c3cc(N5CCN(C)CC5)cnc3[C@H](C)OC)n4CC)CC(C)(C)COC(=O)[C@@H]3CCCN(N3)C2=O)C(C)C)C1 (single isomer, unassigned)")
"1 to 10 µM"
>>> result("CCn1c(-c2cccnc2[C@H](C)OC)c2c3cc(ccc31)-c1cccc(c1)C[C@H](NC(=O)[C@@H](COC1CN(C(=O)C#CC(C)(C)O)C1)C(C)C)C(=O)N1CCC[C@H](N1)C(=O)OCC(C)(C)C2 (atropisomer, axis not shown)")
"1 to 10 µM"
>>> result("C=CC(=O)N1CC[C@H](C(=O)N(C)[C@H](C(=O)N[C@H]2Cc3nc(n(C)n3)-c3ccc4c(c3)c(c(-c3cccnc3[C@H](C)OC)n4CC)CC(C)(C)COC(=O)[C@@H]3CCCN(N3)C2=O)C(C)C)C1 (atropisomer, axis not shown)")
"1 to 10 µM"
>>> result("C=CC(=O)N(C)[C@H]1C[C@@H](N(C)C(=O)N(C)[C@H](C(=O)N[C@H]2Cc3nc(cs3)-c3ccc4c(c3)c(c(-c3cccnc3[C@H](C)OC)n4CC)CC(C)(C)COC(=O)[C@@H]3CCCN(N3)C2=O)C(C)C)C1 (atropisomer, axis not shown)")
"0.01 to 0.1 µM"
>>> result("CCn1c(-c2cccnc2)c2c3cc(ccc31)-c1csc(c1)C[C@H](NC(=O)[C@H](C(C)C)N(C)C(=O)[C@H]1CCN(C(=O)C#CCN3CCOCC3)C1)C(=O)N1CCC[C@H](N1)C(=O)OCC(C)(C)C2")
"> 10 µM"

---

Target: NRAS Q61R (Homo sapiens (Human), UniProt P01111+P62937, Q61R)
Sequence (P01111 whole entry Q61R, one chain of several): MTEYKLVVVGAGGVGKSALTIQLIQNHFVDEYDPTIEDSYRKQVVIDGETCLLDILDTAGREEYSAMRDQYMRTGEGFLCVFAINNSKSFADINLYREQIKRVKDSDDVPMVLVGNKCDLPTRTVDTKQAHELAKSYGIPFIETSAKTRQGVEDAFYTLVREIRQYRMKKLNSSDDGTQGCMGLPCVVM
Test: Ras-Raf (BRAF RBD) disruption / FRET / MOA assay, NRAS Q61R
Format: biochemical
Settings: NRAS Q61R; Ras-Raf disruption/FRET/MOA assay; read-out: IC50* NRAS Q61R FRET data
Recorded IC50 for the following compounds
Quantity: IC50

>>> result("C=CC(=O)N1CC(N2CCN(C(=O)N(C)[C@H](C(=O)N[C@H]3Cc4nc(cs4)-c4ccc5c(c4)c(c(-c4cccnc4[C@H](C)OC)n5CC)CC(C)(C)COC(=O)[C@@H]4CCCN(N4)C3=O)C(C)C)CC2)C1 (atropisomer, axis not shown)")
"100 to 1000 nM"
>>> result("CCn1c(-c2cccnc2[C@H](C)OC)c2c3cc(ccc31)-c1csc(n1)C[C@H](NC(=O)[C@H](C(C)C)N(C)C(=O)N(C)C1CN(C(=O)/C=C/C3CN(C)C3)C1)C(=O)N1CCC[C@H](N1)C(=O)OCC(C)(C)C2 (atropisomer, axis not shown)")
"100 to 1000 nM"
>>> result("C=CC(=O)N(C)[C@@H]1CCN(C(=O)N(C)[C@H](C(=O)N[C@H]2Cc3nc(cs3)-c3ccc4c(c3)c(c(-c3cccnc3[C@H](C)OC)n4CC)CC(C)(C)COC(=O)[C@@H]3CCCN(N3)C2=O)C(C)C)C1 (atropisomer, axis not shown)")
"100 to 1000 nM"
>>> result("C=CC(=O)N1CC2(COCCN2C(=O)N(C)[C@H](C(=O)N[C@H]2Cc3nc(cs3)-c3ccc4c(c3)c(c(-c3cccnc3[C@H](C)OC)n4CC)CC(C)(C)COC(=O)[C@@H]3CCCN(N3)C2=O)C(C)C)C1 (atropisomer, axis not shown)")
"1000 to 10000 nM"
